src = patent US20240173295A1

Kindly supply the reported amount in liquid composition at 2 Months (chemical stability) values for the records listed here.
- method: Chemical stability of liquid composition on storage
- Assay type: physicochemical
- conditions-used: stored at 6° C. or 22° C.
Number only, in mg/60 mL; omit the unit.

Exercise: Output amount in liquid composition at 2 Months (chemical stability) of NCC(=O)O [Glycine]
Solution: 3319

Exercise: Supply measured amount in liquid composition at 2 Months (chemical stability) of N[C@@H](Cc1c[nH]c2ccccc12)C(=O)O [L-Tryptophan] in your reply.
Solution: 420

Exercise: Read the entry [Zn] [Zinc] and write its reported amount in liquid composition at 2 Months (chemical stability).
Solution: 6

Exercise: Assign amount in liquid composition at 2 Months (chemical stability) to the following record: CC/C=C\C/C=C\C/C=C\C/C=C\C/C=C\CCCC(=O)O [eicosapentaenoic acid]
Solution: 319

Exercise: Report amount in liquid composition at 2 Months (chemical stability) for [Na] [Sodium]
Solution: 1.23

Exercise: Using the record for O=C1O[C@H]([C@@H](O)CO)C(O)=C1O [Vitamin C] , state its measured amount in liquid composition at 2 Months (chemical stability).
Solution: 326
